# System: Enterococcus gallinarum 245
# Protocol Summary: MIC, standard broth micro-dilution assay, EG 245
# Format: cell-based
Below: a set of entries, each annotated with reported minimal inhibitory concentration (MIC), EG 245.
Parameter Measured: minimal inhibitory concentration (MIC), EG 245

CC1OC(OC2c3ccc(c(Cl)c3)Oc3cc4cc(c3OC3OC(CO)C(O)C(O)C3OC3CC(C)(NCc5ccc(-c6ccccc6)cc5)C(O)C(C)O3)Oc3ccc(cc3Cl)C(O)C(NC(=O)C(N)Cc3ccc(Cl)cc3)C(=O)NC(CC(N)=O)C(=O)NC4C(=O)NC3C(=O)NC2C(=O)NC(C(=O)O)c2cc(O)cc(O)c2-c2cc3ccc2O)CC(C)(N)C1O (stereo not drawn) [Example 22] | 0.25
CC1OC(OC2c3ccc(c(Cl)c3)Oc3cc4cc(c3OC3OC(CO)C(O)C(O)C3OC3CC(C)(NCc5ccc(-c6ccccc6)cc5)C(O)C(C)O3)Oc3ccc(cc3Cl)C(O)C(NC(=O)C3CCCN3C(=O)OC(C)(C)C)C(=O)NC(CC(N)=O)C(=O)NC4C(=O)NC3C(=O)NC2C(=O)NC(C(=O)O)c2cc(O)cc(O)c2-c2cc3ccc2O)CC(C)(N)C1O (stereo not drawn) [Example 29] | 2
CC(C)CC(NC(=O)OC(C)(C)C)C(=O)NC1C(=O)NC(CC(N)=O)C(=O)NC2C(=O)NC3C(=O)NC(C(=O)NC(C(=O)O)c4cc(O)cc(O)c4-c4cc3ccc4O)C(OC3CC(C)(N)C(O)C(C)O3)c3ccc(c(Cl)c3)Oc3cc2cc(c3OC2OC(CO)C(O)C(O)C2O)Oc2ccc(cc2Cl)C1O (stereo not drawn) [Example 36] | 16

---

# System: Enterococcus gallinarum 245
# Protocol Summary: MIC, standard broth micro-dilution assay, EG 245
# Assay type: cell-based
Parameter Measured: minimal inhibitory concentration (MIC), EG 245

CC1OC(OC2c3ccc(c(Cl)c3)Oc3cc4cc(c3OC3OC(CO)C(O)C(O)C3OC3CC(C)(NCc5ccc(-c6ccccc6)cc5)C(O)C(C)O3)Oc3ccc(cc3Cl)C(O)C(NC(=O)C(Cc3ccc(Cl)cc3)NC(=O)OC(C)(C)C)C(=O)NC(CC(N)=O)C(=O)NC4C(=O)NC3C(=O)NC2C(=O)NC(C(=O)O)c2cc(O)cc(O)c2-c2cc3ccc2O)CC(C)(N)C1O (centres unmarked) [Example 28] | 2

---

minimal inhibitory concentration (MIC), Resistant overview
# Test system: Resistant Enterococcus faecium and faecalis
# Protocol Summary: MIC, standard broth micro-dilution assay, Resistant
# Assay type: cell-based
# Applied Conditions: geometric mean of 4-6 isolates
# Procedure: The antibacterial efficacy of the present compounds is illustrated by Table III. The minimal inhibitory concentrations (MICs) were determined using a standard broth micro-dilution assay.
Parameter Measured: minimal inhibitory concentration (MIC), Resistant

CC1OC(OC2c3ccc(c(Cl)c3)Oc3cc4cc(c3OC3OC(CO)C(O)C(O)C3OC3CC(C)(NCc5ccc(-c6ccccc6)cc5)C(O)C(C)O3)Oc3ccc(cc3Cl)C(O)C(NC(=O)C(N)CCCCN)C(=O)NC(CC(N)=O)C(=O)NC4C(=O)NC3C(=O)NC2C(=O)NC(C(=O)O)c2cc(O)cc(O)c2-c2cc3ccc2O)CC(C)(N)C1O (stereo not drawn) [Example 23] | 2
CC1OC(OC2c3ccc(c(Cl)c3)Oc3cc4cc(c3OC3OC(CO)C(O)C(O)C3OC3CC(C)(NCc5ccc(-c6ccccc6)cc5)C(O)C(C)O3)Oc3ccc(cc3Cl)C(O)C(NC(=O)C(N)Cc3ccc(Cl)cc3)C(=O)NC(CC(N)=O)C(=O)NC4C(=O)NC3C(=O)NC2C(=O)NC(C(=O)O)c2cc(O)cc(O)c2-c2cc3ccc2O)CC(C)(N)C1O (stereo not drawn) [Example 22] | 6.7
CC1OC(OC2c3ccc(c(Cl)c3)Oc3cc4cc(c3OC3OC(CO)C(O)C(O)C3OC3CC(C)(NCc5ccc(-c6ccccc6)cc5)C(O)C(C)O3)Oc3ccc(cc3Cl)C(O)C(NC(=O)C3CCCN3)C(=O)NC(CC(N)=O)C(=O)NC4C(=O)NC3C(=O)NC2C(=O)NC(C(=O)O)c2cc(O)cc(O)c2-c2cc3ccc2O)CC(C)(N)C1O (stereo not drawn) [Example 32] | 16
CNC(C(=O)NC1C(=O)NC(CC(N)=O)C(=O)NC2C(=O)NC3C(=O)NC(C(=O)NC(C(=O)O)c4cc(O)cc(O)c4-c4cc3ccc4O)C(OC3CC(C)(N)C(O)C(C)O3)c3ccc(c(Cl)c3)Oc3cc2cc(c3OC2OC(CO)C(O)C(O)C2OC2CC(C)(N)C(O)C(C)O2)Oc2ccc(cc2Cl)C1O)C(C)C (stereo not drawn) [Example 42] | 128
CC(C)CC(N)C(=O)NC1C(=O)NC(CC(N)=O)C(=O)NC2C(=O)NC3C(=O)NC(C(=O)NC(C(=O)O)c4cc(O)cc(O)c4-c4cc3ccc4O)C(OC3CC(C)(N)C(O)C(C)O3)c3ccc(c(Cl)c3)Oc3cc2cc(c3OC2OC(CO)C(O)C(O)C2OC2CC(C)(NCc3ccc(-c4ccccc4)cc3)C(O)C(C)O2)Oc2ccc(cc2Cl)C1O (stereo not drawn) [Example 13] | 2.4
CC1OC(OC2c3ccc(c(Cl)c3)Oc3cc4cc(c3OC3OC(CO)C(O)C(O)C3OC3CC(C)(NCc5ccc(-c6ccccc6)cc5)C(O)C(C)O3)Oc3ccc(cc3Cl)C(O)C(NC(=O)C(Cc3ccc(Cl)cc3)NC(=O)OC(C)(C)C)C(=O)NC(CC(N)=O)C(=O)NC4C(=O)NC3C(=O)NC2C(=O)NC(C(=O)O)c2cc(O)cc(O)c2-c2cc3ccc2O)CC(C)(N)C1O (stereo not drawn) [Example 28] | 13

---

# System: Staphylococcus aureus 489
# Protocol Summary: MIC, standard broth micro-dilution assay, SA 489
# Type: cell-based
# Method: The antibacterial efficacy of the present compounds is illustrated by Table III. The minimal inhibitory concentrations (MICs) were determined using a standard broth micro-dilution assay.
Parameter Measured: minimal inhibitory concentration (MIC), SA 489

CC1OC(OC2c3ccc(c(Cl)c3)Oc3cc4cc(c3OC3OC(CO)C(O)C(O)C3OC3CC(C)(NCc5ccc(-c6ccc(Cl)cc6)cc5)C(O)C(C)O3)Oc3ccc(cc3Cl)C(O)C(NC(=O)CCCCCCNC(=O)OC(C)(C)C)C(=O)NC(CC(N)=O)C(=O)NC4C(=O)NC3C(=O)NC2C(=O)NC(C(=O)O)c2cc(O)cc(O)c2-c2cc3ccc2O)CC(C)(N)C1O (stereo not drawn) [Example 9] | 1
CC1OC(OC2c3ccc(c(Cl)c3)Oc3cc4cc(c3OC3OC(CO)C(O)C(O)C3OC3CC(C)(NCc5ccc(-c6ccccc6)cc5)C(O)C(C)O3)Oc3ccc(cc3Cl)C(O)C(NC(=O)C(N)Cc3ccc(Cl)cc3)C(=O)NC(CC(N)=O)C(=O)NC4C(=O)NC3C(=O)NC2C(=O)NC(C(=O)O)c2cc(O)cc(O)c2-c2cc3ccc2O)CC(C)(N)C1O (stereo not drawn) [Example 22] | 1
CC1OC(OC2c3ccc(c(Cl)c3)Oc3cc4cc(c3OC3OC(CO)C(O)C(O)C3OC3CC(C)(NCc5ccc(-c6ccccc6)cc5)C(O)C(C)O3)Oc3ccc(cc3Cl)C(O)C(NC(=O)C(Cc3ccc(Cl)cc3)NC(=O)OC(C)(C)C)C(=O)NC(CC(N)=O)C(=O)NC4C(=O)NC3C(=O)NC2C(=O)NC(C(=O)O)c2cc(O)cc(O)c2-c2cc3ccc2O)CC(C)(N)C1O (stereo not drawn) [Example 21] | 0.25
CC(C)CC(N)C(=O)NC1C(=O)NC(CC(N)=O)C(=O)NC2C(=O)NC3C(=O)NC(C(=O)NC(C(=O)O)c4cc(O)cc(O)c4-c4cc3ccc4O)C(OC3CC(C)(N)C(O)C(C)O3)c3ccc(c(Cl)c3)Oc3cc2cc(c3OC2OC(CO)C(O)C(O)C2OC2CC(C)(NCc3ccc(-c4ccccc4)cc3)C(O)C(C)O2)Oc2ccc(cc2Cl)C1O (stereo not drawn) [Example 27] | 4
CC1OC(OC2c3ccc(c(Cl)c3)Oc3cc4cc(c3OC3OC(CO)C(O)C(O)C3OC3CC(C)(NCc5ccc(-c6ccccc6)cc5)C(O)C(C)O3)Oc3ccc(cc3Cl)C(O)C(NC(=O)C(N)Cc3ccc(Cl)cc3)C(=O)NC(CC(N)=O)C(=O)NC4C(=O)NC3C(=O)NC2C(=O)NC(C(=O)O)c2cc(O)cc(O)c2-c2cc3ccc2O)CC(C)(N)C1O (stereo not drawn) [Example 33] | 2

---

Some compounds, each annotated with its measured minimal inhibitory concentration (MIC), HFRD.
# System: Haemophilus influenzae RD
# Protocol Summary: MIC, standard broth micro-dilution assay, HFRD
# Type: cell-based
Parameter Measured: minimal inhibitory concentration (MIC), HFRD

CC(C)CCC(=O)NC1C(=O)NC(CC(N)=O)C(=O)NC2C(=O)NC3C(=O)NC(C(=O)NC(C(=O)O)c4cc(O)cc(O)c4-c4cc3ccc4O)C(OC3CC(C)(N)C(O)C(C)O3)c3ccc(c(Cl)c3)Oc3cc2cc(c3OC2OC(CO)C(O)C(O)C2OC2CC(C)(NCc3ccc(-c4ccc(Cl)cc4)cc3)C(O)C(C)O2)Oc2ccc(cc2Cl)C1O (centres unmarked) [Example 7] | 64
CC(C)CC(NC(=O)OC(C)(C)C)C(=O)NC1C(=O)NC(CC(N)=O)C(=O)NC2C(=O)NC3C(=O)NC(C(=O)NC(C(=O)O)c4cc(O)cc(O)c4-c4cc3ccc4O)C(OC3CC(C)(N)C(O)C(C)O3)c3ccc(c(Cl)c3)Oc3cc2cc(c3OC2OC(CO)C(O)C(O)C2OC2CC(C)(NCc3ccc(-c4ccccc4)cc3)C(O)C(C)O2)Oc2ccc(cc2Cl)C1O (centres unmarked) [Example 11] | >64
CC1OC(OC2c3ccc(c(Cl)c3)Oc3cc4cc(c3OC3OC(CO)C(O)C(O)C3OC3CC(C)(NCc5ccc(-c6ccc(Cl)cc6)cc5)C(O)C(C)O3)Oc3ccc(cc3Cl)C(O)C(NC(=O)CCCCCCNC(=O)OC(C)(C)C)C(=O)NC(CC(N)=O)C(=O)NC4C(=O)NC3C(=O)NC2C(=O)NC(C(=O)O)c2cc(O)cc(O)c2-c2cc3ccc2O)CC(C)(N)C1O (centres unmarked) [Example 9] | >64
CC(C)CCC(=O)NC1C(=O)NC(CC(N)=O)C(=O)NC2C(=O)NC3C(=O)NC(C(=O)NC(C(=O)O)c4cc(O)cc(O)c4-c4cc3ccc4O)C(OC3CC(C)(N)C(O)C(C)O3)c3ccc(c(Cl)c3)Oc3cc2cc(c3OC2OC(CO)C(O)C(O)C2OC2CC(C)(NCc3ccc(-c4ccccc4)cc3)C(O)C(C)O2)Oc2ccc(cc2Cl)C1O (centres unmarked) [Example 5] | >64

The reported numbers originate from patent US6670446B1.
